Reported Ki against UniProt P21728, gathered from multiple publications, appears below.
Output spec: scalar in nM, unitless text.

Illustrative cases are given below, each with its answer.
Quote Ki reported for `O=c1ccc2c(N3CCN(CCCCOc4ccn5nccc5c4)CC3)ccc(O)c2[nH]1` please. 4700

Quote Ki reported for `Clc1ccc2c(c1)N=C(N1CCN(Cc3ccc(OCCCN4CCCCC4)cc3)CC1)c1ccccc1N2` please. 866

Quote Ki reported for `O=C1CCc2ccc(OCCCCN3CCN(c4ccc(O)c5ncccc45)CC3)cc2N1` please. 1500

Next:
Quote Ki reported for CNc1ncc2c(n1)CC(CN1CCC(c3noc4cc(F)ccc34)CC1)CC2=O (stereo not given) please. 42.7

Quote Ki reported for `CN1CCCC[C@H]1CCN1c2ccccc2Sc2ccc([S@](C)=O)cc21` please. 620

Quote Ki reported for OC(c1ccccc1)c1ccccc1OCCN1CCCC1 (stereo not given) please. 2620

Quote Ki reported for `OCc1cc2cc(OCCCCN3CCN(c4cccc(Cl)c4Cl)CC3)ccn2n1` please. 240

Quote Ki reported for `O=C1CCc2ccc(OCCCCN3CCCN(c4ccc(O)c5[nH]c(=O)ccc45)CC3)cc2N1` please. 11000

Quote Ki reported for CN1CCCCC1CCN1c2ccccc2Sc2ccc([S+](C)[O-])cc21 (single isomer, unassigned; 2) please. 103

Quote Ki reported for `O=C(c1ccccc1)c1ccccc1OCCN1CCCC1` please. 1650

Quote Ki reported for `c1ccc(Cc2ccccc2OCCN2CCCC2)cc1` please. 379

Quote Ki reported for `c1ccc(Cc2ccccc2OCCCN2CCCC2)cc1` please. 113

Quote Ki reported for `O=c1ccc2c(N3CCCN(CCCCOc4ccn5nccc5c4)CC3)ccc(O)c2[nH]1` please. 13000

---

Reported pKi against D(1A) dopamine receptor (Homo sapiens), gathered from multiple publications, appears below.
Sequence (P21728 whole entry): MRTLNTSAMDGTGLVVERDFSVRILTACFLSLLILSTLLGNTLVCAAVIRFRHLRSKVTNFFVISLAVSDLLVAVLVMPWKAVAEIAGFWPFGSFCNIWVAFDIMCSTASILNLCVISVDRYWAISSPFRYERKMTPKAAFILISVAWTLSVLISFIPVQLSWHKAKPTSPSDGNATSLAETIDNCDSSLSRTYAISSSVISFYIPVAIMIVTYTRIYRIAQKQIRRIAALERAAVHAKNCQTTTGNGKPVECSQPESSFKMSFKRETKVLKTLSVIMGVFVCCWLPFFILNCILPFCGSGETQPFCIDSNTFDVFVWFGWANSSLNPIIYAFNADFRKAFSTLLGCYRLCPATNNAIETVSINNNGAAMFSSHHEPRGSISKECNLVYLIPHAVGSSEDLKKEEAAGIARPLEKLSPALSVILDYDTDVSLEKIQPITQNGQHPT
pKi: −log10 of the molar value.
Parameter threshold = 6. Response is 1 when pKi meets or exceeds it, else -1.

Example entries begin here.
Has `CCCCn1cc(CCCOc2ccc(C(=O)NCCCN3CCCN(c4ccc(O)c5[nH]c(=O)ccc45)CC3)cc2OC)nn1` a recorded pKi greater than or equal to 6? -1

Has `Clc1cccc(N2CCN(CCCCc3cn(-c4ccn5nccc5c4)nn3)CC2)c1Cl` a recorded pKi greater than or equal to 6? 1

Has `O=C(OCCN1CCN(CCCN2c3ccccc3Sc3ccc(C(F)(F)F)cc32)CC1)c1ccc(OCCCN2CCCCC2)cc1` a recorded pKi greater than or equal to 6? 1

Has `c1ccc(Cc2ccccc2NCCN2CCCC2)cc1` a recorded pKi greater than or equal to 6? -1

Has `CN(CCC=C1c2ccccc2CCc2ccccc21)C(=O)c1ccc(OCCCN2CCCCC2)cc1` a recorded pKi greater than or equal to 6? -1

Next:
Has `CN(C)CCOc1ccccc1Cc1ccccc1` a recorded pKi greater than or equal to 6? 1

Has `Oc1ccc(N2CCN(CCCCOc3ccn4nccc4c3)CC2)c2c1OCCO2` a recorded pKi greater than or equal to 6? -1

Has `O=C1COc2c(N3CCN(CCCCOc4ccn5nccc5c4)CC3)ccc(O)c2N1` a recorded pKi greater than or equal to 6? -1
